experiment: solvent given as SMILES; details: in CCO
measuredAttribute: emission maximum (nm)
Your answer is read as nm, so omit the unit and give the number.

QUERY: Provide one value: measured emission maximum of O=c1oc2ccccc2c(O)c1C(CC(O)c1ccc(-c2ccc(Br)cc2)cc1)c1ccccc1 (stereo unspecified)
RESULT: 392

QUERY: Provide one value: measured emission maximum of N#Cc1cccc(N)c1
RESULT: 384

QUERY: Provide one value: measured emission maximum of CN1c2cc3nc4cc(F)c(F)cc4nc3cc2N(C)C1(C)C
RESULT: 488

QUERY: Provide one value: measured emission maximum of COc1ccc2c(-c3nc(-c4cccc(C)c4)no3)cc(=O)oc2c1
RESULT: 464

QUERY: Provide one value: measured emission maximum of NS(=O)(=O)c1ccc(N2N=C(c3ccc(O)cc3)CC2c2ccc(Br)cc2)cc1 (stereo unspecified)
RESULT: 428

QUERY: Provide one value: measured emission maximum of COC(=O)c1ccc2ccc3cccc4ccc1c2c34
RESULT: 391

QUERY: Provide one value: measured emission maximum of CN(C)CCN(Cc1c2ccccc2cc2ccccc12)c1ccc([N+](=O)[O-])cc1
RESULT: 410

QUERY: Provide one value: measured emission maximum of Oc1ccc(-c2cccs2)cc1-c1nc2ccccc2s1
RESULT: 428

QUERY: Provide one value: measured emission maximum of CC(C)[Si]1(C(C)C)c2cc(C#N)ccc2-c2ccc(N(c3ccccc3)c3ccccc3)cc21
RESULT: 482

QUERY: Provide one value: measured emission maximum of Cc1ccccc1-c1c2ccc(=[N+]3CCCCC3)cc-2oc2cc(N3CCCCC3)ccc12
RESULT: 584

QUERY: Provide one value: measured emission maximum of Cc1cc(O)c(C(C)C)cc1/N=C/c1ccc(C(F)(F)F)cc1
RESULT: 429
